Reference source for all entries: the supplement of paper PMC3334620

Catalogue of sequences with associated PBM E-score
system tested: Mot3 (UniProt P54785)
Sequence: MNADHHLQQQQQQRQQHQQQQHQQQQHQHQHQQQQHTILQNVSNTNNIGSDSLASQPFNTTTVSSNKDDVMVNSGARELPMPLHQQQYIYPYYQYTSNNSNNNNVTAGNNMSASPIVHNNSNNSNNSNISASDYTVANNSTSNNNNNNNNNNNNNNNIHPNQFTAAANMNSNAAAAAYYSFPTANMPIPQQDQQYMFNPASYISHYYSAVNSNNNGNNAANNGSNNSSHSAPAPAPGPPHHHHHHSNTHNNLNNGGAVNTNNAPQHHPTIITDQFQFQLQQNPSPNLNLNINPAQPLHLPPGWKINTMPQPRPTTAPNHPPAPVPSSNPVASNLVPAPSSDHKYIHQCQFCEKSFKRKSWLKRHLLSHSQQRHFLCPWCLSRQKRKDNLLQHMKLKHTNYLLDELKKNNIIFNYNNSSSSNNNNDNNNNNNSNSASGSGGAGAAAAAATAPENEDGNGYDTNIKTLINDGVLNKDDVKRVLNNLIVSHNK
method summary: PBM E-score (8-mer binding enrichment) (E-score (-0.5 to 0.5)); higher = stronger / more preferred TF binding
assay context: protein concentration: 200 nM; construct: GST-full length
In all, about 33,000 sequences were measured (“E-score (-0.5 to 0.5)”: median about -0.035, highest 2% from about 0.34 on). The full list was thinned out, with the highest values kept by preference.

In: // lookup PBM E-score for `AGTGCCGA`
Out: -0.324

In: # query: PBM E-score of entry `GGTGCCAA`
Out: -0.14

In: Please give the measured PBM E-score for this sequence: `TGGCAAAA`
Out: 0.0985

Continuing:
In: Which measured PBM E-score value corresponds to `GTCTATGA` ?
Out: 0.0543

In: Return reported PBM E-score; argument: `CCTGCAGG`
Out: 0.413

In: Can you look up the measured PBM E-score of `GGCCTGTA` for me?
Out: 0.148

In: Value lookup for PBM E-score; key = `CAGGGACG`
Out: 0.0493

In: State the recorded PBM E-score for this entry: `CCTGCAGC`
Out: 0.0434

In: What does the record list as PBM E-score for `CGGCAAAG` ?
Out: -0.226

In: May I ask what PBM E-score has been recorded for `AATCGACA` ?
Out: 0.201

In: Reported PBM E-score for `CGGCAAAC` : what is it?
Out: -0.217

In: What value of measured PBM E-score is listed for `TGCCTGAA` ?
Out: 0.48

In: Query (sequence): `ACCTCAGC` ; field requested: PBM E-score
Out: -0.124

In: Any idea what PBM E-score was measured for `ACGTATCC` ?
Out: -0.129

In: Using the record for `AGCCTGAA` , report its PBM E-score.
Out: 0.223

In: Fill in: PBM E-score of `ACAGGATG` is ___
Out: 0.00887

In: So what's the measured PBM E-score for this one? `CGACATGC`
Out: 0.279

In: Name the recorded PBM E-score for `TAGCTAGA` .
Out: -0.0751

In: Any idea what its PBM E-score is? The sequence is `AGGCAAAC`
Out: 0.482

* * *

system tested: Mot3 (UniProt P54785)
Sequence: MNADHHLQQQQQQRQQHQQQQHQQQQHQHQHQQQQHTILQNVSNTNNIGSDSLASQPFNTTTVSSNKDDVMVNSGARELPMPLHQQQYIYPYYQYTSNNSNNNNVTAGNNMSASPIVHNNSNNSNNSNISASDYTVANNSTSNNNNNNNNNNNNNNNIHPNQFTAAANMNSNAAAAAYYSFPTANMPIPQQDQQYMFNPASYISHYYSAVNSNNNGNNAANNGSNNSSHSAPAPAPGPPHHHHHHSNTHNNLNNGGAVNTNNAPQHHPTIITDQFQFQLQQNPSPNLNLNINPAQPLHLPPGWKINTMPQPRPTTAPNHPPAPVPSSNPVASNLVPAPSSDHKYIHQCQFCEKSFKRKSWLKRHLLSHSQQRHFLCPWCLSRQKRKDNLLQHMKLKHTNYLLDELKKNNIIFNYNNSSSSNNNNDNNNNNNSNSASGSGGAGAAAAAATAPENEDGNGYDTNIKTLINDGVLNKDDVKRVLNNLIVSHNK
method summary: PBM E-score (8-mer binding enrichment) (E-score (-0.5 to 0.5)); higher = stronger / more preferred TF binding
assay context: protein concentration: 200 nM; construct: GST-full length
The full ranking holds about 33,000 sequences; the median of “E-score (-0.5 to 0.5)” is about -0.035, and the highest 2% start at about 0.34. The entries come from a sample that favours the highest values as a whole.
property label: PBM E-score

In: May I ask what PBM E-score has been recorded for `CATTTACG` ?
Out: 0.201

In: // query PBM E-score value for entry `TATTTAGA`
Out: 0.184

In: For `AATAACAC` , what is its reported PBM E-score?
Out: 0.31

In: # input sequence: `CCAGGCCC` ; wanted: its PBM E-score
Out: -0.101

Further cases:
In: // query PBM E-score value for entry `AATTTACC`
Out: 0.153

In: Quick one: PBM E-score for `CGTGTCAC` ?
Out: 0.157

In: PBM E-score for `GGCCGGAC` ?
Out: -0.187

* * *

system tested: Mot3 (UniProt P54785)
Sequence: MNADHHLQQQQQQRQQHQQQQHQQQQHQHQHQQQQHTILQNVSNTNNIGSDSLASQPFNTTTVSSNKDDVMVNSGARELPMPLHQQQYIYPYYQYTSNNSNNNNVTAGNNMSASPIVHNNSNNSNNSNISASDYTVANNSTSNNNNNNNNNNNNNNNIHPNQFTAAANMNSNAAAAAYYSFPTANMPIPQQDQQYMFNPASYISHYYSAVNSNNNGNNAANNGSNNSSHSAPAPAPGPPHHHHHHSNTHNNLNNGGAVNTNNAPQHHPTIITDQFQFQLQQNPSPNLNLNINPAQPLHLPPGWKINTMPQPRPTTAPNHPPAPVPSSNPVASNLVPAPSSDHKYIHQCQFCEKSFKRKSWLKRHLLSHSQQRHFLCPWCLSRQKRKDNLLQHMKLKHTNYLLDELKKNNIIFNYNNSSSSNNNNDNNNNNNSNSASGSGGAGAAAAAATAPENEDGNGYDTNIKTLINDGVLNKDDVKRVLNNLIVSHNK
method summary: PBM E-score (8-mer binding enrichment) (E-score (-0.5 to 0.5)); higher = stronger / more preferred TF binding
assay context: protein concentration: 200 nM; construct: GST-full length
Whole data set: some 33,000 sequences, median “E-score (-0.5 to 0.5)” near -0.035, cut for the highest 2% near 0.34. Shown is part of a subset that was picked to be rich in the highest values.
property label: PBM E-score
Respond with the number and no other words.

In: Endpoint output: PBM E-score of `ATTACGTG` . Value?
Out: 0.383

***
In: Name the recorded PBM E-score for `ATTACGTC` .
Out: 0.269

In: Endpoint output: PBM E-score of `GCCGTGCC` . Value?
Out: 0.346

In: Requested read-out: PBM E-score. Entry: `CGCACTGC`
Out: -0.0709

In: Can you share its PBM E-score? I mean this sequence: `CAGGTTCG`
Out: -0.00261

In: Consider the sequence shown here: `ATGCTCAG` What is its recorded PBM E-score?
Out: 0.15

In: What measured PBM E-score goes with `GCCCTTAC` ?
Out: -0.0326

In: Any idea what its PBM E-score is? The sequence is `ATACACAG`
Out: 0.332

In: Recorded PBM E-score of `GCCGTGCA` , please.
Out: -0.0598

In: Tell me the measured PBM E-score of `ACTGTGCC` , please.
Out: 0.265

In: // returns reported PBM E-score for input `TTACACAA`
Out: 0.42

In: What value of PBM E-score has been recorded for this entry: `TCGGCTAA`
Out: -0.0724

In: What does the data say about its PBM E-score? Entry: `CCTGTGCC`
Out: 0.361

In: Quick one: PBM E-score for `CCTGTGCG` ?
Out: 0.185

In: Fill in: PBM E-score of `AATCAGGT` is ___
Out: 0.153

In: Which value of PBM E-score has been reported for `TACATGAA` in the records?
Out: 0.375

In: So what does the record say about PBM E-score for `AACATGCA` ?
Out: 0.324

In: Give its PBM E-score value. Item: `GTTACGTA`
Out: 0.177

In: I am curious: what PBM E-score value has been reported for `AGTGGCCA` ?
Out: -0.158

In: Return reported PBM E-score; argument: `CTACACTA`
Out: 0.135

In: Form field: reported PBM E-score of `GCGACGAA`
Out: -0.154

In: What value of PBM E-score has been recorded for this entry: `CTTACGTA`
Out: 0.211
